tested on: Bacillus subtilis (ATCC 6051); assay: MIC in broth, Gram+ strains; type: cell-based; conditions: ATCC6051, B. subtilis (ATCC 6051), Mueller-Hinton broth, 37° C., 18 hours, read-out: Minimal Inhibitory Concentration (MIC)
# reported MIC; entries follow

COMPOUND | TARGET_OR_TEST_SYSTEM | MIC
CCCCCCCCCCCCOC(=O)CC(C[N+](C)(C)C)OC(=O)CC(C)C (stereo not drawn) | Bacillus subtilis (ATCC 6051) | 3.12 µg/mL
CCCCCCCCCCCCOC(=O)CC(C[N+](C)(C)C)OC(=O)C(C)C (stereo not drawn) | Bacillus subtilis (ATCC 6051) | 6.25 µg/mL
CCCCCCCCCCCCCOC(=O)CC(C[N+](C)(C)C)OC(=O)CCCCC (stereo not drawn) | Bacillus subtilis (ATCC 6051) | 3.12 µg/mL
CCCCCCCCCCCOC(=O)CC(C[N+](C)(C)C)OC(=O)CC(C)C (stereo not drawn) | Bacillus subtilis (ATCC 6051) | 3.12 µg/mL
CCCCCCCCCCCOC(=O)CC(C[N+](C)(C)C)OC(=O)CCC(C)C (stereo not drawn) | Bacillus subtilis (ATCC 6051) | 3.12 µg/mL
CCCCCCCCCCCCCOC(=O)CC(C[N+](C)(C)C)OC(=O)CC(C)C (stereo not drawn) | Bacillus subtilis (ATCC 6051) | 3.12 µg/mL

* * *

tested on: Streptococcus faecalis (501); experiment: MIC in broth, Gram+ strains; type: cell-based; conditions: Enterococcus faecalis; S. faecalis (501), Mueller-Hinton broth, 37° C., 18 hours; read-out: Minimal Inhibitory Concentration (MIC)

COMPOUND | MIC
CCCCCCCCCCCCCCCCOC(=O)CC(C[N+](C)(C)C)OC(=O)CC(C)C (stereo not shown) | 3.12 µg/mL
CCCCCCCCCCCOC(=O)CC(C[N+](C)(C)C)OC(=O)CC(C)C (stereo not shown) | 3.12 µg/mL
CCCCCCCCCCCCOC(=O)CC(C[N+](C)(C)C)OC(=O)C(C)C (stereo not shown) | 3.12 µg/mL
CCCCCCCCCCCOC(=O)CC(C[N+](C)(C)C)OC(=O)CCCCCC (stereo not shown) | 1.56 µg/mL
